Test system: E. coli DH5α
Assay: Antibacterial activity: MIC and growth curve against E. coli DH5α in 96-well plate
Assay type: cell-based
Settings: minimal inhibitory concentration against E. coli DH5α; 96-well plate, 5×10^5 CFU/mL, 37° C., judged after 8 h
Description: 1. E. coli DH5α was exemplified. E. coli DH5α was streaked and cultured on LB solid medium. […] 4. […] Samples were taken every 30 min, the absorbance values were determined at 600 nm wavelength under a ultra violet spectrophotometer, and an inhibition curve was plotted. […] According to the experimental procedures in Example 14, the minimal inhibitory concentrations (MIC, μg/mL) of the other human-originated EGF domain proteins (PRT2 to PRT1498 in Table 1) for E. coli DH5α were determined.
Metric name: MIC (µg/mL)
A number alone suffices; assume µg/mL.

Some solved cases for reference:
> print(dat)
                                  substance  unit.of.measure  observed.result
1  PRT923 (LDDACISNPCHKGALCDTNPLNGQYICTCPQGYKGADCT; listed as Homo sapiens)            µg/mL               25
2  PRT174 (CASSPCANGGTCRDGVNDFSCTCPPGYTGRNC; listed as Homo sapiens)            µg/mL               50
3  PRT1436 (AERNCRNPELNPCSVNAQCIEERQGDVTCVCGVGWAGDGYICG; listed as Homo sapiens)            µg/mL             12.5
4  PRT211 (DIDECSYSSYLCQYRCVNEPGRFSCHCPQGYQ; listed as Homo sapiens)            µg/mL               25
5  PRT213 (QNCTKTPCLPNAKCEIRNGIEACYCNMGFSGNGVTICE; listed as Homo sapiens)            µg/mL             12.5

Incoming: I have this substance here, PRT989 (NIDDCATAVCFHGATCHDRVASFYCACPMGKTGLLCH; listed as Homo sapiens) , and I need its recorded MIC.
Outgoing: 50

Incoming: I have this substance here, PRT1035 (HRAKCAPSYLFSCFNGGECVHPAFCDCRRFNATGPRCQ; listed as Homo sapiens) , and I need its recorded MIC.
Outgoing: 12.5
